The origin of these recorded values is patent US20260337190A1.

# test_description: Dynamic solubility in water, SGF, FaSSIF and FeSSIF
# Type: physicochemical
# condition: fessif, 24 hours, 37 °C; read-out: S: solubility
Structures can show the parent of a compound that is named as a salt.
experimental_endpoint: solubility at 24 h (µg/mL)

Cc1nc(N[C@H](C)c2cccc(S(F)(F)(F)(F)F)c2)c2cn(C3(CF)CC3)c(=O)cc2n1 [Crystal form A of fumarate salt]	2180

====

# test_description: Dynamic solubility in water, SGF, FaSSIF and FeSSIF
# Type: physicochemical
# condition: H2O, 24 hours, 37 °C
Counter-ions that a name gives are not always drawn.
experimental_endpoint: pH of filtrate

Cc1nc(N[C@H](C)c2cccc(S(F)(F)(F)(F)F)c2)c2cn(C3(CF)CC3)c(=O)cc2n1 [Crystal form A of compound of formula I]	5.8
Cc1nc(N[C@H](C)c2cccc(S(F)(F)(F)(F)F)c2)c2cn(C3(CF)CC3)c(=O)cc2n1 [Crystal form A of methanesulfonate salt]	3.1
Cc1nc(N[C@H](C)c2cccc(S(F)(F)(F)(F)F)c2)c2cn(C3(CF)CC3)c(=O)cc2n1 [Crystal form A of fumarate salt]	4.1
Cc1nc(N[C@H](C)c2cccc(S(F)(F)(F)(F)F)c2)c2cn(C3(CF)CC3)c(=O)cc2n1 [Crystal form B of citrate salt]	3.3
Cc1nc(N[C@H](C)c2cccc(S(F)(F)(F)(F)F)c2)c2cn(C3(CF)CC3)c(=O)cc2n1 [Crystal form A of ethanesulfonate salt]	2.8

====

# test_description: Dynamic solubility in water, SGF, FaSSIF and FeSSIF
# Assay type: physicochemical
# condition: H2O, 1 hour, 37 °C
Where a name gives a salt, the structure may show the parent alone.
Each entry below carries its recorded pH of filtrate.
experimental_endpoint: pH of filtrate

Cc1nc(N[C@H](C)c2cccc(S(F)(F)(F)(F)F)c2)c2cn(C3(CF)CC3)c(=O)cc2n1 [Crystal form A of compound of formula I]	5.4
Cc1nc(N[C@H](C)c2cccc(S(F)(F)(F)(F)F)c2)c2cn(C3(CF)CC3)c(=O)cc2n1 [Crystal form A of ethanesulfonate salt]	2.9
Cc1nc(N[C@H](C)c2cccc(S(F)(F)(F)(F)F)c2)c2cn(C3(CF)CC3)c(=O)cc2n1 [Crystal form A of methanesulfonate salt]	3.5
Cc1nc(N[C@H](C)c2cccc(S(F)(F)(F)(F)F)c2)c2cn(C3(CF)CC3)c(=O)cc2n1 [Crystal form B of citrate salt]	3.5
Cc1nc(N[C@H](C)c2cccc(S(F)(F)(F)(F)F)c2)c2cn(C3(CF)CC3)c(=O)cc2n1 [Crystal form A of fumarate salt]	4.2

====

Each entry below carries its recorded pH of filtrate.
# test_description: Dynamic solubility in water, SGF, FaSSIF and FeSSIF
# Type: physicochemical
# condition: FaSSIF, 4 hours, 37 °C
Structures can show the parent of a compound that is named as a salt.
experimental_endpoint: pH of filtrate

Cc1nc(N[C@H](C)c2cccc(S(F)(F)(F)(F)F)c2)c2cn(C3(CF)CC3)c(=O)cc2n1 [Crystal form A of compound of formula I]	6.3
Cc1nc(N[C@H](C)c2cccc(S(F)(F)(F)(F)F)c2)c2cn(C3(CF)CC3)c(=O)cc2n1 [Crystal form A of methanesulfonate salt]	4.4
Cc1nc(N[C@H](C)c2cccc(S(F)(F)(F)(F)F)c2)c2cn(C3(CF)CC3)c(=O)cc2n1 [Crystal form A of ethanesulfonate salt]	4.2
Cc1nc(N[C@H](C)c2cccc(S(F)(F)(F)(F)F)c2)c2cn(C3(CF)CC3)c(=O)cc2n1 [Crystal form A of fumarate salt]	4.6
Cc1nc(N[C@H](C)c2cccc(S(F)(F)(F)(F)F)c2)c2cn(C3(CF)CC3)c(=O)cc2n1 [Crystal form B of citrate salt]	3.9

====

Each entry below carries its recorded pH of filtrate.
# test_description: Dynamic solubility in water, SGF, FaSSIF and FeSSIF
# Format: physicochemical
# condition: SGF, 24 hours, 37 °C
Structures can show the parent of a compound that is named as a salt.
experimental_endpoint: pH of filtrate

Cc1nc(N[C@H](C)c2cccc(S(F)(F)(F)(F)F)c2)c2cn(C3(CF)CC3)c(=O)cc2n1 [Crystal form A of methanesulfonate salt]	1.6
Cc1nc(N[C@H](C)c2cccc(S(F)(F)(F)(F)F)c2)c2cn(C3(CF)CC3)c(=O)cc2n1 [Crystal form A of ethanesulfonate salt]	1.5
Cc1nc(N[C@H](C)c2cccc(S(F)(F)(F)(F)F)c2)c2cn(C3(CF)CC3)c(=O)cc2n1 [Crystal form A of fumarate salt]	1.7
Cc1nc(N[C@H](C)c2cccc(S(F)(F)(F)(F)F)c2)c2cn(C3(CF)CC3)c(=O)cc2n1 [Crystal form A of compound of formula I]	3.2
Cc1nc(N[C@H](C)c2cccc(S(F)(F)(F)(F)F)c2)c2cn(C3(CF)CC3)c(=O)cc2n1 [Crystal form B of citrate salt]	2.4

====

Each entry below carries its recorded pH of filtrate.
# test_description: Dynamic solubility in water, SGF, FaSSIF and FeSSIF
# Format: physicochemical
# condition: FeSSIF, 4 hours, 37 °C
Where a name gives a salt, the structure may show the parent alone.
experimental_endpoint: pH of filtrate

Cc1nc(N[C@H](C)c2cccc(S(F)(F)(F)(F)F)c2)c2cn(C3(CF)CC3)c(=O)cc2n1 [Crystal form B of citrate salt]	4.6
Cc1nc(N[C@H](C)c2cccc(S(F)(F)(F)(F)F)c2)c2cn(C3(CF)CC3)c(=O)cc2n1 [Crystal form A of fumarate salt]	4.8
Cc1nc(N[C@H](C)c2cccc(S(F)(F)(F)(F)F)c2)c2cn(C3(CF)CC3)c(=O)cc2n1 [Crystal form A of compound of formula I]	5.1
Cc1nc(N[C@H](C)c2cccc(S(F)(F)(F)(F)F)c2)c2cn(C3(CF)CC3)c(=O)cc2n1 [Crystal form A of ethanesulfonate salt]	4.8
Cc1nc(N[C@H](C)c2cccc(S(F)(F)(F)(F)F)c2)c2cn(C3(CF)CC3)c(=O)cc2n1 [Crystal form A of methanesulfonate salt]	4.8

====

# test_description: Dynamic solubility in water, SGF, FaSSIF and FeSSIF
# Format: physicochemical
# condition: SGF, 4 hours, 37 °C
# Procedure: Purified water was added to complete dissolution.
Counter-ions that a name gives are not always drawn.
Each entry below carries its recorded pH of filtrate.
experimental_endpoint: pH of filtrate

Cc1nc(N[C@H](C)c2cccc(S(F)(F)(F)(F)F)c2)c2cn(C3(CF)CC3)c(=O)cc2n1 [Crystal form A of compound of formula I]	3.3
Cc1nc(N[C@H](C)c2cccc(S(F)(F)(F)(F)F)c2)c2cn(C3(CF)CC3)c(=O)cc2n1 [Crystal form B of citrate salt]	2.6
Cc1nc(N[C@H](C)c2cccc(S(F)(F)(F)(F)F)c2)c2cn(C3(CF)CC3)c(=O)cc2n1 [Crystal form A of methanesulfonate salt]	1.8
Cc1nc(N[C@H](C)c2cccc(S(F)(F)(F)(F)F)c2)c2cn(C3(CF)CC3)c(=O)cc2n1 [Crystal form A of fumarate salt]	2.0
Cc1nc(N[C@H](C)c2cccc(S(F)(F)(F)(F)F)c2)c2cn(C3(CF)CC3)c(=O)cc2n1 [Crystal form A of ethanesulfonate salt]	1.5

====

# test_description: Solid state stability (25 °C/60% RH and 40 °C/75% RH, one week; XRPD and HPLC)
# Type: physicochemical
# condition: Onset
# Protocol: The purity test, dynamic solubility test, and stability test in the assay were measured with an Agilent 1260 high-performance liquid chromatograph, and the salt formation molar ratio of ions was tested by ion chromatography, and the analytical conditions are shown in Table 5 and Table 6.
Where a name gives a salt, the structure may show the parent alone.
experimental_endpoint: HPLC results Purity (solid state stability) (area %)

Cc1nc(N[C@H](C)c2cccc(S(F)(F)(F)(F)F)c2)c2cn(C3(CF)CC3)c(=O)cc2n1 [Crystal form B citrate salt]	98.92
Cc1nc(N[C@H](C)c2cccc(S(F)(F)(F)(F)F)c2)c2cn(C3(CF)CC3)c(=O)cc2n1 [Crystal form A compound formula I]	97.06
Cc1nc(N[C@H](C)c2cccc(S(F)(F)(F)(F)F)c2)c2cn(C3(CF)CC3)c(=O)cc2n1 [Crystal form A fumarate salt]	98.67
Cc1nc(N[C@H](C)c2cccc(S(F)(F)(F)(F)F)c2)c2cn(C3(CF)CC3)c(=O)cc2n1 [Crystal form A ethanesulfonate salt]	99.10
Cc1nc(N[C@H](C)c2cccc(S(F)(F)(F)(F)F)c2)c2cn(C3(CF)CC3)c(=O)cc2n1 [Crystal form A methanesulfonate salt]	99.18

====

Each entry below carries its recorded HPLC results Purity (solid state stability).
# test_description: Solid state stability (25 °C/60% RH and 40 °C/75% RH, one week; XRPD and HPLC)
# Format: physicochemical
# condition: 40 °C/75% RH/open, 1 week
Structures can show the parent of a compound that is named as a salt.
experimental_endpoint: HPLC results Purity (solid state stability) (area %)

Cc1nc(N[C@H](C)c2cccc(S(F)(F)(F)(F)F)c2)c2cn(C3(CF)CC3)c(=O)cc2n1 [Crystal form A fumarate salt]	98.70
Cc1nc(N[C@H](C)c2cccc(S(F)(F)(F)(F)F)c2)c2cn(C3(CF)CC3)c(=O)cc2n1 [Crystal form A ethanesulfonate salt]	99.29
Cc1nc(N[C@H](C)c2cccc(S(F)(F)(F)(F)F)c2)c2cn(C3(CF)CC3)c(=O)cc2n1 [Crystal form B citrate salt]	99.01
Cc1nc(N[C@H](C)c2cccc(S(F)(F)(F)(F)F)c2)c2cn(C3(CF)CC3)c(=O)cc2n1 [Crystal form A methanesulfonate salt]	99.26
Cc1nc(N[C@H](C)c2cccc(S(F)(F)(F)(F)F)c2)c2cn(C3(CF)CC3)c(=O)cc2n1 [Crystal form A compound formula I]	97.14
